- experimental_system: T1, TNFR1 (Homo sapiens, UniProt P19438)
- T1 chain: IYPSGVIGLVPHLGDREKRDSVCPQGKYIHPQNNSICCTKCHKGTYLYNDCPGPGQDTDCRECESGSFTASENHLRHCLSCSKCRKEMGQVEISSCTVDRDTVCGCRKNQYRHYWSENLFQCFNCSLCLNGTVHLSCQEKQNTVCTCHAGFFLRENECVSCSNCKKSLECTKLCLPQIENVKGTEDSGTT
- measurement_notes: yeast display SC50
assay_readout: apparent Kd (screen) (nM)

Example cases with answers are listed next.
I87L (designed binder) SMEEEVEKAAKEYEKKKKEAIEKHLEKLKAKDKEAAERFLKELEEAAKEYAKDEAKTMSEEEAKRRAKKYKEKVLLSELSEEEQKELKEAEEKLVRTILKYVEEAAK :: 2.25
E86K (designed binder) SMEEEVEKAAKEYEKKKKEAIEKHLEKLKAKDKEAAERFLKELEEAAKEYAKDEAKTMSEEEAKRRAKKYKEKVLLSELSEEEQKKIKEAEEKLVRTILKYVEEAAK :: 0.593

[P] A90P (designed binder) SMEEEVEKAAKEYEKKKKEAIEKHLEKLKAKDKEAAERFLKELEEAAKEYAKDEAKTMSEEEAKRRAKKYKEKVLLSELSEEEQKEIKEPEEKLVRTILKYVEEAAK
[Q] L40F (designed binder) SMEEEVEKAAKEYEKKKKEAIEKHLEKLKAKDKEAAERFFKELEEAAKEYAKDEAKTMSEEEAKRRAKKYKEKVLLSELSEEEQKEIKEAEEKLVRTILKYVEEAAK
Exam item: Hi there, can you help? I need to know whether P or Q has lower measured apparent Kd (screen). Could you answer with the label of the item you picked?
Marked response: Q
(Q: 0.869 nM, P: 26.9 nM)
